Molecular target: HLA-A*02:01
Assay: IEDB peptide-MHC binding, purified MHC/competitive/fluorescence; bounds were set here for any values at or beyond the usual limits of such assays
Conditions: source organism: Homo sapiens
result_type: IC50 (nM)

Below, each entry is followed by its recorded IC50 result.
Task: Given the sequence SHLVEALYL , what is its reported IC50?
Output: 59400

Task: Field request: IC50 | item: ALYLVCGERGF
Output: 2260

Task: Fill in the blank: the reported IC50 of YLVCGERGFF is ____.
Output: 2300

[A] HLVEALYLVCG
[B] YLVCGERGFFY
[C] HLVEALYLVC
[D] GSHLVEALYLV
[E] HLCGSHLVEAL
Task: List by increasing IC50. Give the labels in the order specified.
Output: A, E, C, D, B
(A: 190 nM, E: 440 nM, C: 1750 nM, D: 3730 nM, B: 8590 nM)

These entries and their values trace back to the Immune Epitope Database (IEDB).
